Test system: RXF 393 renal
Assay protocol: NCI-60 one-dose screen, 48 h
Settings: 10 µM unless noted
Compounds without any hit were thinned out: in the full panel of roughly 83,000, 20% have a hit. Active and inactive are the calls of the source. How the source made its calls: active means growth percent below 10; inactive means the rest.
Form entry, call: pick from class 1 for active, class 0 for inactive

Short answer needed: outcome of this test for `N#Cc1c(-c2cccc([N+](=O)[O-])c2)nc(SCC(=O)c2ccc(Cl)cc2)[nH]c1=O` ? class 0

Please share the test call associated with `O=C(NNc1nc2c(F)cccc2n2cccc12)c1cnccn1` . class 0

Lab log entry: CCOC(=O)CC1CSC(N/N=C/c2ccc(-n3cccn3)cc2)=N1 (centres undefined) — outcome as called in the assay? class 0

Record lookup: outcome of this test for `O=C1c2ccc3c4c(ccc(c24)C(=O)N1CCCNCc1ccccc1Cl)C(=O)N(CCCNCc1ccccc1Cl)C3=O` ? class 1

What outcome does the record of this test show for CC(=O)N1N=C(c2ccc(-n3ccc(C(F)(F)F)n3)c(F)c2)CC1c1ccc[nH]1 (centres undefined) ? class 0

# fetch the recorded call for `COc1cc2nc(-c3ccc(Cl)cc3)cc(OCCCN3CCCC3)c2cc1OC` here class 0

Test call, this molecule: `O=C(NCCNc1nccc(-c2c(-c3cccc(F)c3)nc3sccn23)n1)c1ccc(Cl)cc1` class 0

For this molecule, state the assay outcome: `CCOc1cccc(-c2nc(N)nc(Nc3ccccc3SSc3ccccc3Nc3nc(N)nc(-c4cccc(OCC)c4)n3)n2)c1` class 0

Outcome? N#CC1=C(N)Oc2c(ccc3ccccc23)C1c1ccccc1Cl (centres undefined) class 0

Provenance of the data: PubChem BioAssay (NCI)
